experimentNotes: The drug is tested on Ruminococcus torques strain: ATCC27756 for biotransformation. The drug concentrations were measured before and after a 12-h incubation by liquid-chromatography-coupled mass spectrometry (LC–MS)
Format: ADME
Set-up: dose 2 uM, timepoint 0 vs 12 hours
runParameters: 2 µM
parameterMeasured: Bacterial Biotransformation

Reference set (4 entries):
# compound, Bacterial Biotransformation
records = [
    ("N#Cc1ccc2c(c1)N(CCCN1CCC(O)CC1)c1ccccc1S2", "Compound NOT metabolized"),
    ("O=C1NCC2(CCN(CCc3ccccc3)CC2)O1 [FENSPIRIDE]", "Compound NOT metabolized"),
    ("CN1CCN2c3ccccc3Cc3ccccc3C2C1 (stereo unspecified)", "Compound NOT metabolized"),
    ("COc1c(C)c2c(c(O)c1C/C=C(\\C)CCC(=O)OCCN1CCOCC1)C(=O)OC2 [MYCOPHENOLATE MOFETIL]", "Compound metabolized"),
]

Request: Endpoint output: Bacterial Biotransformation of CN1CCN(C2=Nc3ccccc3Oc3ccc(Cl)cc32)CC1.O=C(O)CCC(=O)O [LOXAPINE SUCCINATE] . Value?
Response: Compound NOT metabolized

Request: Endpoint output: Bacterial Biotransformation of "CCCc1nc2c(C)cc(-c3nc4ccccc4n3C)cc2n1Cc1ccc(-c2ccccc2C(=O)O)cc1" . Value?
Response: Compound NOT metabolized

Request: Endpoint output: Bacterial Biotransformation of "CCC(=O)NCC[C@@H]1CCc2ccc3c(c21)CCO3" . Value?
Response: Compound NOT metabolized

Request: Endpoint output: Bacterial Biotransformation of OC(CCN1CCCCC1)(c1ccccc1)C1CC2C=CC1C2 (stereo unspecified) . Value?
Response: Compound NOT metabolized

Request: Endpoint output: Bacterial Biotransformation of CC(=O)O[C@]1(C(C)=O)CC[C@H]2[C@@H]3C=C(Cl)C4=CC(=O)[C@@H]5C[C@@H]5[C@]4(C)[C@H]3CC[C@@]21C [CYPROTERONE ACETATE] . Value?
Response: Compound NOT metabolized

Request: Endpoint output: Bacterial Biotransformation of "CC(=O)O[C@H]1C(=O)[C@@]2(C)[C@H]([C@H](OC(=O)c3ccccc3)[C@]3(O)C[C@H](OC(=O)[C@H](O)[C@@H](NC(=O)c4ccccc4)c4ccccc4)C(C)=C1C3(C)C)[C@]1(OC(C)=O)CO[C@@H]1C[C@@H]2O" . Value?
Response: Compound NOT metabolized

Request: Endpoint output: Bacterial Biotransformation of "O=C(CCCN1CCC(O)(c2ccc(Cl)cc2)CC1)c1ccc(F)cc1" . Value?
Response: Compound NOT metabolized

Request: Endpoint output: Bacterial Biotransformation of "CNC(=C[N+](=O)[O-])NCCSCc1csc(CN(C)C)n1" . Value?
Response: Compound metabolized

Request: Endpoint output: Bacterial Biotransformation of COc1cc(NC(C)CCCN)c2ncccc2c1.O=P(O)(O)O.O=P(O)(O)O (stereo unspecified) [PRIMAQUINE PHOSPHATE] . Value?
Response: Compound NOT metabolized

Request: Endpoint output: Bacterial Biotransformation of CC(C)C[C@H]1C(=O)N2CCC[C@H]2[C@]2(O)O[C@](NC(=O)[C@@H]3C=C4c5cccc6[nH]c(Br)c(c56)C[C@H]4N(C)C3)(C(C)C)C(=O)N12.CS(=O)(=O)O [BROMOCRIPTINE MESYLATE] . Value?
Response: Compound metabolized

Request: Endpoint output: Bacterial Biotransformation of O=c1[nH]c2ccccc2n1C1CCN(CCCC(c2ccc(F)cc2)c2ccc(F)cc2)CC1 [PIMOZIDE] . Value?
Response: Compound NOT metabolized

Request: Endpoint output: Bacterial Biotransformation of "Cc1ccc(/C(=C\CN2CCCC2)c2ccccn2)cc1" . Value?
Response: Compound NOT metabolized

###

runParameters: bifidobacterium adolescentis, 12 h, 2 µM
Description: The drug is tested on Bifidobacterium adolescentis strain: ATCC 15703 for biotransformation. The drug concentrations were measured before and after a 12-h incubation by liquid-chromatography-coupled mass spectrometry (LC–MS)

# compound, Bacterial Biotransformation
rows = [
    ("C=CC[C@@H]1/C=C(\\C)C[C@H](C)C[C@H](OC)[C@H]2O[C@@](O)(C(=O)C(=O)N3CCCC[C@H]3C(=O)O[C@H](/C(C)=C/[C@@H]3CC[C@@H](O)[C@H](OC)C3)[C@H](C)[C@@H](O)CC1=O)[C@H](C)C[C@@H]2OC.O", "Compound NOT metabolized"),
    ("CCN(CC)C(C)CN1c2ccccc2Sc2ccccc21 (centres undefined)", "Compound NOT metabolized"),
    ("CCCCCNC(=N)N/N=C/c1c[nH]c2ccc(OC)cc12.O=C(O)/C=C\\C(=O)O [TEGASEROD MALEATE]", "Compound NOT metabolized"),
    ("O=C(Nc1ccccc1)OCC(CN1CCCCC1)OC(=O)Nc1ccccc1 (centres undefined)", "Compound NOT metabolized"),
]

###

experimentNotes: The drug is tested on Collinsella aerofaciens strain: ATCC25986 for biotransformation. The drug concentrations were measured before and after a 12-h incubation by liquid-chromatography-coupled mass spectrometry (LC–MS)
runParameters: 2 µM
Non-standard residues stand in square brackets, D forms with d. Residues, ends and D or L forms follow the SMILES beside them. pGlu = O=C1CC[C@@H](C(=O)O)N1; Thz = O=C(O)[C@@H]1CSCN1
parameterMeasured: Bacterial Biotransformation

Reference set (6 entries):
# compound, valueObserved
records = [
    ("O=C1[C@H](CC[C@H](O)c2ccc(F)cc2)[C@@H](c2ccc(O)cc2)N1c1ccc(F)cc1", "Compound NOT metabolized"),
    ("Nc1nnc(-c2cccc(Cl)c2Cl)c(N)n1", "Compound NOT metabolized"),
    ("O=C(NC(Cc1cc(=O)[nH]c2ccccc12)C(=O)O)c1ccc(Cl)cc1 (configuration not stated) [REBAMIPIDE]", "Compound NOT metabolized"),
    ("CCN(C(C)=O)c1cccc(-c2ccnc3c(C#N)cnn23)c1", "Compound NOT metabolized"),
    ("CCC(=O)NCC[C@@H]1CCc2ccc3c(c21)CCO3", "Compound NOT metabolized"),
    ("CC1OC(OC2C(O)CC(OC3C(O)CC(OC4CCC5(C)C(CCC6C5CCC5(C)C(C7=CC(=O)OC7)CCC65O)C4)OC3C)OC2C)CC(O)C1O (configuration not stated)", "Compound NOT metabolized"),
]

Request: Endpoint output: Bacterial Biotransformation of COc1ccnc(C[S+]([O-])c2nc3ccc(OC(F)F)cc3[nH]2)c1OC (configuration not stated) . Value?
Response: Compound metabolized

Request: Endpoint output: Bacterial Biotransformation of "c1ccc([C@H]2CN3CCSC3=N2)cc1" . Value?
Response: Compound metabolized

Request: Endpoint output: Bacterial Biotransformation of CN1CCC(=C2c3ccccc3CCc3cccnc32)CC1.O=C(O)/C=C\C(=O)O.O=C(O)/C=C\C(=O)O [AZATADINE MALEATE] . Value?
Response: Compound NOT metabolized

Request: Endpoint output: Bacterial Biotransformation of "CCc1nn(CCCN2CCN(c3cccc(Cl)c3)CC2)c(=O)n1CCOc1ccccc1" . Value?
Response: Compound NOT metabolized

Request: Endpoint output: Bacterial Biotransformation of "CN1CCC(OC(c2ccccc2)c2ccccc2)CC1" . Value?
Response: Compound NOT metabolized

Request: Endpoint output: Bacterial Biotransformation of COCCc1ccc(OCC(O)CNC(C)C)cc1.COCCc1ccc(OCC(O)CNC(C)C)cc1.O=C(O)C(O)C(O)C(=O)O (configuration not stated) [METOPROLOL TARTRATE] . Value?
Response: Compound NOT metabolized

Request: Endpoint output: Bacterial Biotransformation of CN(C)CCOC(c1ccc(Cl)cc1)c1ccccn1.O=C(O)/C=C\C(=O)O (configuration not stated) [CARBINOXAMINE MALEATE] . Value?
Response: Compound NOT metabolized

Request: Endpoint output: Bacterial Biotransformation of CC(C)(C)NC(=O)[C@H]1CC[C@H]2[C@@H]3CC[C@H]4NC(=O)C=C[C@]4(C)[C@H]3CC[C@]12C [FINASTERIDE] . Value?
Response: Compound NOT metabolized

Request: Endpoint output: Bacterial Biotransformation of C#C[C@]1(OC(C)=O)CC[C@H]2[C@@H]3CCC4=C/C(=N/O)CC[C@@H]4[C@H]3CC[C@@]21CC [NORGESTIMATE] . Value?
Response: Compound NOT metabolized

Request: Endpoint output: Bacterial Biotransformation of "CCCc1nc(C(C)(C)O)c(C(=O)OCc2oc(=O)oc2C)n1Cc1ccc(-c2ccccc2-c2nnn[nH]2)cc1" . Value?
Response: Compound metabolized

Request: Endpoint output: Bacterial Biotransformation of O=C1CC[C@@H](C(=O)N2CSC[C@H]2C(=O)O)N1 [PIDOTIMOD] ([pGlu]-[Thz]-OH) . Value?
Response: Compound NOT metabolized

###

runParameters: parabacteroides johnsonii, 12 h, 2 µM
Description: The drug is tested on Parabacteroides johnsonii strain: DSM18315 for biotransformation. The drug concentrations were measured before and after a 12-h incubation by liquid-chromatography-coupled mass spectrometry (LC–MS)

# compound, Bacterial Biotransformation
data = [
    ("COc1ccccc1OCC(O)COC(N)=O (centres undefined) [METHOCARBAMOL]", "Compound NOT metabolized"),
    ("CC(=O)O[C@]1(C(C)=O)CC[C@H]2[C@@H]3C=C(Cl)C4=CC(=O)[C@@H]5C[C@@H]5[C@]4(C)[C@H]3CC[C@@]21C [CYPROTERONE ACETATE]", "Compound metabolized"),
    ("COc1ccccc1OCCNCC(O)COc1cccc2[nH]c3ccccc3c12 (centres undefined) [CARVEDILOL]", "Compound metabolized"),
    ("Br.CN(C)CCCC1(c2ccc(F)cc2)OCc2cc(C#N)ccc21 (centres undefined) [CITALOPRAM HYDROBROMIDE]", "Compound NOT metabolized"),
]
